Test: Cytotoxicity against porcine IPEC-J2 cells assessed as cell survival rate at 64 uM measured after 8 hrs by MTT assay relative to control
Assay type: toxicity, cell-based, Sus scrofa
Settings: pig, read-out: Activity

[
  {
    "SUBSTANCE": "H-GKLWLKGGKLWLKGGKLWLKG-NH2",
    "viability at 8 h, 64 µM": "> 80%"
  },
  {
    "SUBSTANCE": "H-GKLWLKGGKLWLKGGKLWLKA-NH2",
    "viability at 8 h, 64 µM": "> 80%"
  },
  {
    "SUBSTANCE": "H-GKLWLKAGKLWLKGGKLWLKG-NH2",
    "viability at 8 h, 64 µM": "> 80%"
  },
  {
    "SUBSTANCE": "H-GKLWLKGGKLWLKAGKLWLKG-NH2",
    "viability at 8 h, 64 µM": "> 80%"
  },
  {
    "SUBSTANCE": "H-GKLWLKGGKLWLKGAKLWLKG-NH2",
    "viability at 8 h, 64 µM": "> 80%"
  },
  {
    "SUBSTANCE": "H-GKLWLKGAKLWLKGGKLWLKG-NH2",
    "viability at 8 h, 64 µM": "< 50%"
  }
]

Measured values drawn from ChEMBL document CHEMBL5518215 for this set.
